target: Prostaglandin E synthase (Homo sapiens); assay: Inhibition of recombinant human mPGES-1 expressed in CHO cells assessed as reduction in PGE2 formation at 10 uM using PGH2 a substrate preincubated for 10 mins followed by substrate addition measured after 1 min relative to control; format: cell-based
reportedMetric: inhibition

Known results for molecules:
- cpdSmiles: "CC1(C)Oc2nc(C#Cc3cc(C(F)(F)F)ccc3Cl)ccc2-c2nc(-c3c(F)cccc3Cl)[nH]c21"
  measuredTarget: "Prostaglandin E synthase (Homo sapiens)"
  inhibition: "63%"
- cpdSmiles: "CC1(C)Oc2cc(C(=O)Nc3cccc(C(F)(F)F)c3)ccc2-c2[nH]c(-c3c(F)cccc3Cl)nc21"
  measuredTarget: "Prostaglandin E synthase (Homo sapiens)"
  inhibition: "83.6%"
- cpdSmiles: "CC1(C)Oc2cc(-c3nc(C4CC4)no3)ccc2-c2[nH]c(-c3c(F)cccc3Cl)nc21"
  measuredTarget: "Prostaglandin E synthase (Homo sapiens)"
  inhibition: "98.6%"

Prompt line: Recall the reported inhibition of "CC1(C)Oc2cc(-c3cccc(C(F)(F)F)c3)ccc2-c2[nH]c(-c3c(F)cccc3Cl)nc21" when tested on Prostaglandin E synthase (Homo sapiens).
Response line: 94.6%
